Hello, the source for this data is patent EP0559700B1, in case you need it.

experiment: Stability of the compounds: buffer hydrolysis (half-times, shelf-life); assay type: physicochemical; details: buffer pH 9.00, ionic strength 0.5, 37°C; read-out: Half-times in buffers at 37°C, T½, pH 9.00 (converted)
Let's look at some compounds and their measured half-life.
API: value field is a number in h; no unit string.

Problem: Value lookup for half-life; key = CCC(=O)OC[C@H](Cc1cncn1C)[C@H](CC)C(=O)OCc1ccc(COC(=O)[C@@H](CC)[C@H](COC(=O)CC)Cc2cncn2C)cc1 [Example 10]
Result: 47

Problem: Repeat for the following compound: CCCCC(=O)OC[C@H](Cc1cncn1C)[C@H](CC)C(=O)OCc1ccccc1 [valeryl, benzyl, reference compound]
Result: 303

Problem: Item: CC[C@H](C(=O)OCCCCCCOC(=O)[C@@H](CC)[C@H](CO)Cc1cncn1C)[C@H](CO)Cc1cncn1C [Example 5]
Result: 0.233

* * *

The entries below come with measured Capacity factor (22°C) k' values attached.
Test: Lipophilicity: partition coefficient (octanol-buffer) and capacity factor by RP-HPLC
Type: physicochemical
Settings: rp-hplc
From the text: The lipophilicity of the compounds were studied by determining the partition coefficients (P) of the compounds at a pH of 7.40. […] The partition coefficients of the very lipophilic compounds were, however, determined by reverse phase (RP) liquid chromatography (HPLC) from the retention time (Beckmann 116 pump and 166 UV detector; Marathon autom. sample feeder). […]
Enter the number alone.

Problem: Reported Capacity factor (22°C) k', molecule CC[C@H](C(=O)OCc1ccccc1)[C@H](COC(=O)CCC(=O)OC[C@H](Cc1cncn1C)[C@H](CC)C(=O)OCc1ccccc1)Cc1cncn1C [Example 17, O,O'-Succinyl (dibenzyl) bispilocarpate] : ____
Result: 3.4557

* * *

assay: Lipophilicity: partition coefficient (octanol-buffer) and capacity factor by RP-HPLC; assay type: physicochemical; settings: pH 7.4
# Partition coefficient log P annotations

See these solved cases before continuing.
CC[C@H](C(=O)OCc1ccccc1)[C@H](COC(=O)CCCCC(=O)OC[C@H](Cc1cncn1C)[C@H](CC)C(=O)OCc1ccccc1)Cc1cncn1C [Example 15, O,O'-Adipoyl (dibenzyl) bispilocarpate] = 5.8242^2
CC[C@H](C(=O)OCc1ccccc1)[C@H](COC(=O)CCC(=O)OC[C@H](Cc1cncn1C)[C@H](CC)C(=O)OCc1ccccc1)Cc1cncn1C [Example 17, O,O'-Succinyl (dibenzyl) bispilocarpate] = 5.2038^2
CC[C@H](C(=O)OCc1ccccc1)[C@H](COC(=O)/C=C/C(=O)OC[C@H](Cc1cncn1C)[C@H](CC)C(=O)OCc1ccccc1)Cc1cncn1C [Example 18, O,O'-Fumaroyl (dibenzyl) bispilocarpate] = 5.7137^2

// next item, Partition coefficient log P requested
Problem: For CC[C@H](C(=O)OCc1ccc(COC(=O)[C@@H](CC)[C@H](COC(C)=O)Cc2cncn2C)cc1)[C@H](COC(C)=O)Cc1cncn1C [Example 9] , what is its reported Partition coefficient log P?
Result: 3.0432^1

* * *

test: Stability of the compounds: buffer hydrolysis (half-times, shelf-life); format: physicochemical; settings: pH 7.4; buffer pH 7.40, ionic strength 0.5, 37°C; read-out: Half-times in buffers at 37°C, T½, pH 7.40 (converted)
The threshold is 400 h. Values of half-life beneath it are tagged satisfied; values meeting or exceeding it are tagged not satisfied.

CC[C@H](C(=O)OCc1ccccc1)[C@H](COC(C)=O)Cc1cncn1C [acetyl, benzyl, reference compound] = not satisfied

Problem: # TODO verify half-life < 400 h strictly for this molecule: CCC(=O)OC[C@H](Cc1cncn1C)[C@H](CC)C(=O)OCc1ccccc1 [propionyl, benzyl, reference compound]
Result: not satisfied

Problem: Please answer likewise for CC[C@H](C(=O)OCCCCOC(=O)[C@@H](CC)[C@H](CO)Cc1cncn1C)[C@H](CO)Cc1cncn1C
Result: satisfied

Problem: Now the molecule CC[C@H](C(=O)OCc1ccccc1)[C@H](COC(=O)c1ccc(C(=O)OC[C@H](Cc2cncn2C)[C@H](CC)C(=O)OCc2ccccc2)cc1)Cc1cncn1C
Result: satisfied
